Here, each record is paired with measured IC50 data.
- experimental_target: α-glucosidase (Saccharomyces cerevisiae, UniProt P53341)
- Construct: purchased Sigma Inc
- Sequence (P53341 whole entry): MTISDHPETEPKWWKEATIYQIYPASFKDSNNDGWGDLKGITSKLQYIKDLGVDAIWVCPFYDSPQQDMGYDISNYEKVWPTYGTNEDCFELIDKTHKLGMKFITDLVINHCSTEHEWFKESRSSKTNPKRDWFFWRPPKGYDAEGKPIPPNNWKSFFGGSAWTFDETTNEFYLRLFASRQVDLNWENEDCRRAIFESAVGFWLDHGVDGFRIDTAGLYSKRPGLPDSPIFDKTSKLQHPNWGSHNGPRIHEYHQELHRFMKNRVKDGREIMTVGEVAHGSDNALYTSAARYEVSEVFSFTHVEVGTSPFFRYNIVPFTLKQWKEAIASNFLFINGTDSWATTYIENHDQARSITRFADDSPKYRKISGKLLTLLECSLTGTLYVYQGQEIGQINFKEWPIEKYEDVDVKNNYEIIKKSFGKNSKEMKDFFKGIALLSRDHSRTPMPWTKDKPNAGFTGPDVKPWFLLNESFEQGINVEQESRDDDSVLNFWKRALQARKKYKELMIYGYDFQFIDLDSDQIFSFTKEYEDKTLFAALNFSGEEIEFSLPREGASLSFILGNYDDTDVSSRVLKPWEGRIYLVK
- protocol_description: α-glucosidase inhibition assay
- Type: biochemical
- condition_details: 50 mM phosphate buffer pH 6.8; 0.057 units enzyme; standard acarbose
Answer in µM, number only, no unit symbol.

Example entries begin here.
{"columns": ["chemical_smiles", "IC50 [µM]"],
 "data": [
  ["O=[N+]([O-])c1cccc(C(CSc2nnc3c(n2)[nH]c2ccccc23)=NNC(=S)Nc2ccccc2)c1", 8.8],
  ["Cc1ccc(NC(=S)NN=C(CSc2nnc3c(n2)[nH]c2ccccc23)c2ccc(C)cc2)cc1", 17.5],
  ["COc1ccc(C(CSc2nnc3c(n2)[nH]c2ccccc23)=NNC(=S)Nc2ccccc2Br)cc1", 35.8],
  ["S=C(NN=C(CSc1nnc2c(n1)[nH]c1ccccc12)c1ccc(-c2ccccc2)cc1)Nc1cccc(Cl)c1Cl", 7.5],
  ["COc1ccc(C(CSc2nnc3c(n2)[nH]c2ccccc23)=NNC(=S)Nc2c(C)cccc2C)cc1", 5.8],
  ["Cc1cccc(C)c1NC(=S)NN=C(CSc1nnc2c(n1)[nH]c1ccccc12)c1ccc(-c2ccccc2)cc1", 23.3]
]}

Could you now look at the following molecule, please?
Data request, read-out IC50, for S=C(NN=C(CSc1nnc2c(n1)[nH]c1ccccc12)c1ccc(-c2ccccc2)cc1)Nc1ccccc1Br
25.3
